# System: S. aureus GC 1131
# Assay Protocol: In vitro MIC, broth dilution
# Format: cell-based
# Condition Label: Staphylococcus aureus, GC1131; S. aureus GC 1131; read-out: MIC

Compound: COc1ccc(Cn2c(=O)ccn([C@@H]3OC([C@H](O)[C@H](NC(=O)CCCCCCCCCCN)C(=O)OC(C)(C)C)[C@@H](O[Si](C)(C)C(C)(C)C)[C@H]3O[Si](C)(C)C(C)(C)C)c2=O)cc1 (some centres unmarked)
Experimental System: S. aureus GC 1131
MIC: > 128 µg/mL
//
Compound: COc1ccc(Cn2c(=O)ccn([C@@H]3OC([C@H](O)[C@H](NCCCNC(=O)[C@@H](N)[C@H](C)O)C(=O)OC(C)(C)C)[C@@H](O[Si](C)(C)C(C)(C)C)[C@H]3O[Si](C)(C)C(C)(C)C)c2=O)cc1 (some centres unmarked)
Experimental System: S. aureus GC 1131
MIC: 8 µg/mL

Attribution: patent US6858591B2
